- STUDY_SYSTEM: T1, human LAG-3 protein with hFc tag (hLAG-3-hFc protein) (human, UniProt P18627 23-450)
- T1 construct: also called immunogen 1; LAG-3 extracellular domain protein; not shown: human IgG Fc fragment (hFc) of the pCpC vector
- T1 sequence: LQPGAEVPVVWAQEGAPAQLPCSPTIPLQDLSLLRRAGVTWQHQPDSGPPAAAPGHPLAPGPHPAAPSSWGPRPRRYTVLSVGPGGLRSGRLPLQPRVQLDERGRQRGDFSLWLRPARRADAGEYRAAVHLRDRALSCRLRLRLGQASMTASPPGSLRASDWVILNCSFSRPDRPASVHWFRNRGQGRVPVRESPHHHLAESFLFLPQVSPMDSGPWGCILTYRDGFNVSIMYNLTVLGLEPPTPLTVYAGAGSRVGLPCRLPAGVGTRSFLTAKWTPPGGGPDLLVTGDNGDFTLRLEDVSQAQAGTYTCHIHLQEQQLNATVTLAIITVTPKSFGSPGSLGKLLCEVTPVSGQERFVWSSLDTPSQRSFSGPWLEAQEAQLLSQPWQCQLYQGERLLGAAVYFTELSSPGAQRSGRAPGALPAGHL
- PROTOCOL: FACS, blocks LAG-3-hFc binding to MHC II on Raji; 0.823 nM
METRIC: Inhibition rate (%)
The reply should be a number in %, with the unit left off.

Measured Inhibition rate (%), 556F6B8 (mouse antibody purified from hybridoma) (antibody, V domains shown, also called mAb123-556F6B8) VH: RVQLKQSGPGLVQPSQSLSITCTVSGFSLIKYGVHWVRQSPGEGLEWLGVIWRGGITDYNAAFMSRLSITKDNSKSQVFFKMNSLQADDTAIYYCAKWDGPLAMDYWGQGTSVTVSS VL: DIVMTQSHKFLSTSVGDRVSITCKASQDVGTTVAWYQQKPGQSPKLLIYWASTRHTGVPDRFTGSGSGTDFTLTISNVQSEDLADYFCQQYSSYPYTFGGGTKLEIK : 20.1
